# STUDY_TARGET: Amyloid-beta(1-42) Aβ(1-42) (Homo sapiens, UniProt P05067)
# PROTOCOL_NOTES: BLI
METRIC: Kd

[[record]]
binder = "RPITRLRTHQNRRPITRLRTHQNR [DB3DB3]"
metric = "Kd"
result = "1 µM"

[[record]]
binder = "RPITRLRTHQNR [DB3]"
metric = "Kd"
result = "75 µM"


Each recorded value in this set is attributed to paper PMC4841555.
